# Tested on: Pi-GT1b-Rluc replicon
# Experiment Description: Replicon antiviral assay, transient transfection, luciferase activity (GT1b)
# Format: cell-based, Hepatitis C virus genotype 1b
# Condition: Hepatitis C virus, Table 5, 1C cells, 384-well transient transfection, mean ± SD of at least two experiments, read-out: GT1bRluc EC50
Outcome Measure: pEC50
The read-out pEC50 is expressed as -log10 of concentration in moles per litre.

Would you please look over these solved cases?
Fc1ccccc1-c1nc2ccn(Cc3ccc(-c4ccc(C(F)(F)F)cc4C(F)(F)F)nn3)cc-2n1 [Tegobuvir, tegobuvir]	8.59
CN(C)CCN(C)[C@H]1COc2ccccc2-c2c(C3CCCCC3)c3ccc(C(=O)O)cc3n2C1 [MK-3281]	6.27
CNC(=O)c1c(-c2ccc(F)cc2)oc2cc(N(CCO)S(C)(=O)=O)c(C3CC3)cc12 [HCV-796]	7.70

Lab note: next compound to report on.
Please look up its pEC50: CC1=CC[C@H](C(=O)N(c2cc(C#CC(C)(C)C)sc2C(=O)O)[C@H]2CC[C@](O)(CO[C@H]3CCOC3)CC2)CC1 [Compound C] 8.46

* * *

// EC50 lookup, one value per entry
# Test system: GT6aRluc-K272R replicon
# Experiment Description: Replicon antiviral assay, transient transfection, luciferase activity (GT6a, NS3 K272R)
# Assay type: cell-based, Hepatitis C virus genotype 6a
# Condition: Hepatitis C virus, Table 5; 1C cells, 384-well transient transfection, mean ± SD of at least two experiments; read-out: GT6aRluc-K272R EC50
Write the value in nM as a bare number.

Solved entries:
CN(C)CCN(C)[C@H]1COc2ccccc2-c2c(C3CCCCC3)c3ccc(C(=O)O)cc3n2C1	1310
CCc1cc(CC[C@]2(C3CCCC3)CC(O)=C(Cc3nc4nc(C)cc(C)n4n3)C(=O)O2)cc(CC)n1	3540
CC1=CC[C@H](C(=O)N(c2cc(C#CC(C)(C)C)sc2C(=O)O)[C@H]2CC[C@](O)(CO[C@H]3CCOC3)CC2)CC1	736
C=C[C@@H]1C[C@]1(NC(=O)[C@@H]1C[C@@H]2CN1C(=O)[C@H](C(C)(C)C)NC(=O)O[C@@H]1C[C@H]1CCCCCc1nc3ccc(OC)cc3nc1O2)C(=O)NS(=O)(=O)C1CC1	3
CC(C)OC(=O)[C@H](C)N[P@](=O)(OC[C@H]1O[C@@H](n2ccc(=O)[nH]c2=O)[C@](C)(F)[C@@H]1O)Oc1ccccc1	14

For the record CCC[C@H](NC(=O)[C@@H]1[C@H]2CCC[C@H]2CN1C(=O)[C@@H](NC(=O)[C@@H](NC(=O)c1cnccn1)C1CCCCC1)C(C)(C)C)C(=O)C(=O)NC1CC1 , what value of EC50 is listed for GT6aRluc-K272R replicon? 208

Record CNC(=O)c1c(-c2ccc(F)cc2)oc2cc(N(CCO)S(C)(=O)=O)c(C3CC3)cc12 : what is its EC50 with GT6aRluc-K272R replicon? 21

Observed EC50 on GT6aRluc-K272R replicon for COC(=O)N[C@H](C(=O)N1CCC[C@H]1c1nc(-c2ccc(-c3ccc(-c4c[nH]c([C@@H]5CCCN5C(=O)[C@@H](NC(=O)OC)C(C)C)n4)cc3)cc2)c[nH]1)C(C)C , please. 0.08

# value lookup — system GT6aRluc-K272R replicon, readout EC50, item Fc1ccccc1-c1nc2ccn(Cc3ccc(-c4ccc(C(F)(F)F)cc4C(F)(F)F)nn3)cc-2n1 110

Where do these numbers come from? They come from patent US9353423B2.
